- Test system: HCT-116 colon
- Measurement Protocol: NCI-60 one-dose screen, 48 h
- Setup Conditions: 10 µM unless noted
Compounds without any hit were thinned out: in the full panel of roughly 83,000, 20% have a hit. The source made the active and inactive calls. The calls were made as follows: active = growth percent below 10; inactive = the rest.
Hi there, use one of these labels in your reply, thanks! active, inactive

Use the examples below as a reference point.
- Compound: "COc1cccc(C2CC(=O)Nc3c2c(C)nn3-c2nc3ccccc3[nH]2)c1OC (stereo unspecified)"
  Experimental Target: "HCT-116 colon"
  Label Value: "inactive"
- Compound: "CCNc1nc(N2CC(=O)Nc3cc(OC)ccc32)c2ccccc2n1"
  Experimental Target: "HCT-116 colon"
  Label Value: "active"
- Compound: "NC(=O)c1cccc(N2Cc3ccccc3OC3=C2C(=O)c2c(O)ccc(O)c2C3=O)c1"
  Experimental Target: "HCT-116 colon"
  Label Value: "active"
- Compound: "Cc1cccc(NC(=O)c2sc3nc4c(cc3c2N)CCC4)c1C"
  Experimental Target: "HCT-116 colon"
  Label Value: "inactive"
- Compound: "COc1ccc(C2CC(=O)Nc3c2c(C)nn3-c2nc3ccccc3[nH]2)cc1OC (stereo unspecified)"
  Experimental Target: "HCT-116 colon"
  Label Value: "inactive"
- Compound: "Cc1ccc(C2=NN(c3ccc(S(N)(=O)=O)cc3)C(c3cn(-c4ccccc4)nc3-c3ccccc3)C2)cc1 (stereo unspecified)"
  Experimental Target: "HCT-116 colon"
  Label Value: "inactive"
- Compound: "COc1cccc2cc(-c3cc4ccccc4[nH]3)c(=NC(=O)c3ccc(Cl)cc3)oc12"
  Experimental Target: "HCT-116 colon"
  Label Value: "inactive"
- Compound: "c1ccc2c(c1)Oc1ccccc1C2C1c2ccccc2Oc2ccccc21"
  Experimental Target: "HCT-116 colon"
  Label Value: "inactive"

Short answer needed: outcome of this test for O=S(=O)(O)CCl ?
inactive

For CC(C)(C)c1ccc(S(=O)(=O)Oc2ccc3c4c(c(=O)oc3c2)CCCCC4)cc1 , what call appears in the results of this test?
inactive

So what was the verdict on CC(=O)Nc1ccc(S(=O)(=O)N2C(=O)CCC2C(=O)Nc2ccccc2)cc1 (stereo unspecified) in this test?
inactive

Recorded call for CCOC(=O)C1=C(C)NC(=O)NC1c1ccc(OCC(=O)N/N=C/c2ccc(Cl)cc2)cc1 (stereo unspecified) ?
inactive

Which result was noted for this compound in the test: COc1ccc(OC)c(/C=C2\Oc3cc(OCCN4CCCC4)ccc3C2=O)c1
inactive

# outcome recorded in this test, key = Clc1ccc2c(c1)NC1(CCSc3ccccc31)n1nccc1-2 (stereo unspecified)
inactive

State the result this test recorded for FC(F)(F)c1cccc(-n2nnc3cnc(Nc4ccc(N5CCCCC5)cc4)nc32)c1 .
active

Record request — test call for COc1ccc(C(=O)c2cc(OC)c(OC)c(OC)c2)cc1/C=C/C(=O)c1ccc2c(c1)OCO2
active

Assay result, entry C=CCN=C1NC(=O)/C(=C/c2cc(C(C)(C)C)c(O)c(C(C)(C)C)c2)S1 — outcome?
inactive

Lab log entry: O=C(c1ccncc1)N1N=C(c2ccc(Cl)cc2)CC1c1c[nH]c2ccccc12 (stereo unspecified) — outcome as called in the assay?
inactive

Hi, sorry to bother you, what did the test record for COc1cc(NCCCN=C(N)NC(N)=NC(C)C)c2ncccc2c1 ?
inactive

Please share the test call associated with COc1cc(CCn2nnc3c(NCCCCO)ncnc32)cc(OC)c1 .
inactive

Outcome logged for COc1ccccc1CNCCCN1C(=O)c2ccc3c4c(ccc(c24)C1=O)C(=O)N(CCCNCCCCNCCCCN)C3=O in this assay:
active

----------
- System: HCT-116 colon
- Measurement Protocol: NCI-60 one-dose screen, 48 h
- Setup Conditions: 10 µM unless noted
- Method: Growth inhibition of the HCT-116 human tumor cell line is measured as a screen for anti-cancer activity. Cells are grown in 96 well plates and exposed to the test compound for 48 hours. Compounds are tested at a single concentration, which is 10^-5 M for most compounds. The reported endpoint is percent growth (GI% or GIPRCNT), where numbers from 0 - 100% represent growth inhibition, and numbers from -100% - 0 represent cell death. For example, a value of 40 represents 60% growth inhibition. […]
The panel holds about 83,000 compounds, 20% with a hit somewhere; the sample as a whole holds those more often. Calls of active or inactive are those of the source. The calls were made as follows: active = growth percent below 10; inactive = the rest.
Mark one answer only. Choices: active, inactive

- Molecule: "CC(Br)C(O)c1cc2c(cc1Br)OCO2 (stereo unspecified)"
  Experimental Target: "HCT-116 colon"
  Label Value: "inactive"
- Molecule: "O=c1oc2cc(OS(=O)(=O)c3ccccc3)c(Cl)cc2c2c1CCCCCC2"
  Experimental Target: "HCT-116 colon"
  Label Value: "inactive"
- Molecule: "CC/C=C\\C[C@H](O)C/C=C1/C(=O)C(Cl)=C[C@@H]1C/C=C\\CCCC(=O)OC"
  Experimental Target: "HCT-116 colon"
  Label Value: "active"

Tell me the recorded outcome of this test for COC1=CC(c2ccc[nH]2)=N/C1=C\c1[nH]c(C)c(C(=O)CCCCC(=O)Nc2ccccc2)c1C .
active

Recorded test outcome, item CC(C)N(Cc1ccc(CN(C(=O)CCl)C(C)C)cc1)C(=O)CCl
active

GET /call?item= NC(CC(N)C(=O)O)C(=O)O (stereo unspecified) returns the recorded outcome of this test.
inactive

----------
- Tested on: IGROV1 ovarian
- Measurement Protocol: NCI-60 one-dose screen, 48 h
- Setup Conditions: 10 µM unless noted
The panel holds about 83,000 compounds, 20% with a hit somewhere; the sample as a whole holds those more often. Active and inactive are the calls of the source. The calls were made as follows: active = growth percent below 10; inactive = the rest.
Outcomes you can answer with include only these: true (1) = active, false (0) = inactive

See these solved cases before continuing.
- Compound: "CC(C)(C)OC(=O)N1C/C(=C\\c2cccs2)C(=O)/C(=C/c2cccs2)C1"
  Label Value: "false (0)"
- Compound: "Cn1c(C(N)=O)cc2c1-c1nc(NC3CCCCC3)ncc1CCC2"
  Label Value: "false (0)"
- Compound: "O=C(CNC1CCCCC1)Nc1ccc(-c2nc3ccccc3s2)cc1"
  Label Value: "false (0)"
- Compound: "COc1ccc(Cn2c(SC)nc(=O)n(Cc3ccc(Cl)cc3)c2=O)cc1"
  Label Value: "false (0)"

From here, focus on the item given below.
GET /call?item= C#CCN1C(=O)/C(=c2\sc3n(c2=O)NC2C(N=3)N(CC)C(=O)N2CC)c2ccccc21 (configuration not stated) returns the recorded outcome of this test.
false (0)

----------
- Test system: HCT-116 colon
- Measurement Protocol: NCI-60 one-dose screen, 48 h
- Setup Conditions: 10 µM unless noted
About 83,000 compounds went through this panel and 20% of them were active in at least one assay; those are over-represented in the sample as a whole. Active and inactive are the calls of the source. How the source made its calls: active means growth percent below 10; inactive means the rest.
Parameter call: string, one of True for active, False for inactive

Some solved entries appear below for comparison.
- Compound: "C#CCN1C(=O)/C(=c2\\sc3n(c2=O)C2C(NN=3)N(CC)C(=O)N2CC)c2ccccc21 (stereo not given)"
  Label Value: "True"
- Compound: "O=C(Nc1ccc(I)cc1)c1cc([N+](=O)[O-])ccc1O"
  Label Value: "False"
- Compound: "O=C(CNC1CCCCC1)Nc1ccc(-c2nc3ccccc3s2)cc1"
  Label Value: "False"
- Compound: "COc1cc(C2CC(c3c(C)[n+]([O-])c4ccccc4[n+]3[O-])=NN2)cc(OC)c1OC (stereo not given)"
  Label Value: "False"

Test call, this compound: CCn1c(=O)c2c(=O)c3c4c(oc3oc2c2ccccc21)C(=O)c1ccccc1C4=O
False

----------
- Test system: A549/ATCC NSCLC
- Measurement Protocol: NCI-60 one-dose screen, 48 h (100 = growth as untreated, 0 = no growth, -100 = all killed)
- Setup Conditions: 10 µM unless noted
About 83,000 compounds went through this panel and 20% of them were active in at least one assay; those are over-represented in the sample as a whole. Activity calls are given as the source filed them. Rule for the calls: active = growth percent below 10; inactive = the rest.
# maps each entry to its growth

Completed entries (count: 2):
- Compound: "Cc1c(C2=NNC(c3ccc4c(c3)OCO4)C2)[n+]([O-])c2ccccc2[n+]1[O-] (centres undefined)"
  growth: "109% (inactive)"
- Compound: "CCCCCCCCCN1C(=O)/C(=c2\\sc3n(c2=O)C2C(NN=3)N(CC)C(=O)N2CC)c2ccccc21 (centres undefined)"
  growth: "56% (inactive)"

Measured growth of COc1cc(-n2nc(C(=O)Nc3ccc(C(=O)O)cc3)nc2-c2ccccc2)cc(OC)c1OC : 74.7% (inactive)

Record O=C(CNc1ccc(Cl)cc1)Nc1ccc(-c2nc3ccccc3s2)cc1 , field growth: 89% (inactive)

Entry CC(=O)OCC1OC(OCC2OC(OC(C)=O)C(OC(C)=O)C(OC(C)=O)C2OC(C)=O)C(OC(C)=O)C(OC(C)=O)C1OC(C)=O (centres undefined) — recorded growth = 94.4% (inactive)
